target: T1, human MSLN-R3 protein (Met487-Ser606 of NCBI AAH09272.1) expressed on HEK293T-hMSLN-R3 cells (human, UniProt Q13421 487-606); assay: FACS on HEK293T-hMSLN-R3 cells
T1 construct: also called Region3
T1 sequence (Q13421 495-614): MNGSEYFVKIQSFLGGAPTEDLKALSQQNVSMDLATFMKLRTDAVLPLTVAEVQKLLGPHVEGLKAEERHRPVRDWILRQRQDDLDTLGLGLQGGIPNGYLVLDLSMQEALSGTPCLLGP

# binder, Maximum mean fluorescence intensity
records = [
    ("S009-F2.21.4 (antibody, human IgG1, kappa, V domains shown, human-murine chimeric antibody, human IgG1/kappa constant regions) VH: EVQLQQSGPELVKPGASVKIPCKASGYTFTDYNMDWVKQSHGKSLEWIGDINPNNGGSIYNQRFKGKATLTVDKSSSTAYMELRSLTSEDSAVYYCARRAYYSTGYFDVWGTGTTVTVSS VL: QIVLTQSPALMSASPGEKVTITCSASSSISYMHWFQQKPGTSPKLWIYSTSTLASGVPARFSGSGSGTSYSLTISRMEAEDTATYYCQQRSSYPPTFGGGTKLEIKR", 348),
]
